# System: CCRF-CEM leukemia
# ASSAY METHOD TEXT: NCI-60 one-dose screen, 48 h (100 = growth as untreated, 0 = no growth, -100 = all killed)
# ASSAY SETUP: 10 µM unless noted
Compounds without any hit were thinned out: in the full panel of roughly 83,000, 20% have a hit.
PARAMETER MEASURED: growth (%)
Number in %, nothing else.

Before answering, review these 3 worked examples.
COc1ccc(NC(=O)[C@H](C)NC(=O)OC(C)(C)C)cc1C(=O)Nc1cccc(-c2cc(=O)c3c(OC)c(OC)c(OC)cc3o2)c1: 3.69
COc1cc(/C=N/n2cnc3oc(-c4ccccc4)cc3c2=N)cc(CN2CCN(C)CC2)c1O: 66.9
COc1ccc(NC(=O)[C@H](C)N)cc1C(=O)Nc1cccc(-c2cc(=O)c3c(OC)c(OC)c(OC)cc3o2)c1: 52.9

// moving on: another record for growth
[ask] Field request: growth | item: CCc1ccc(NC(=O)N[C@@H](Cc2cccc(F)c2)C(=O)N[C@@H]2C(=O)N3CCC[C@H]3C(=O)N3CCCC[C@H]3C(=O)N[C@@H](CO)C(=O)N3C[C@H](C)C[C@H]3C(=O)O[C@H]2C)c(F)c1
[reply] 37.7

* * *

# System: HS 578T breast
# ASSAY METHOD TEXT: NCI-60 one-dose screen, 48 h (100 = growth as untreated, 0 = no growth, -100 = all killed)
# ASSAY SETUP: 10 µM unless noted
The panel holds about 83,000 compounds, 20% with a hit somewhere; the sample as a whole holds those more often.
PARAMETER MEASURED: growth (%)
Number in %, nothing else.

Nc1cc(F)ccc1NC(=O)c1ccc(NC(=O)C/C=C/c2cccnc2)cn1: 21.1
CCOC(=O)C1=C(C)Nc2nc3ccccc3n2C1c1ccccc1 (stereo not given): 97.7
COc1cc2oc(-c3cccc(NC(=O)c4cc(NC(=O)[C@H](C)NC(=O)OC(C)(C)C)ccc4C)c3)cc(=O)c2c(OC)c1OC: 38.2
O=C(Nc1ccccc1)Nc1nc2ccc([N+](=O)[O-])cc2s1: 5.92

// moving on: another record for growth
[ask] Field request: growth | item: O=C(Nc1cccc(-c2nc(-c3ccc(NC(=O)c4cccs4)cc3Cl)no2)c1)Nc1ccc(NC(=O)C2CC2)c(C(F)(F)F)c1
[reply] -27.1

* * *

# Tested on: UACC-62 melanoma
# ASSAY METHOD TEXT: NCI-60 one-dose screen, 48 h
# ASSAY SETUP: 10 µM unless noted
# Description: Growth inhibition of the UACC-62 human tumor cell line is measured as a screen for anti-cancer activity. Cells are grown in 96 well plates and exposed to the test compound for 48 hours. Compounds are tested at a single concentration, which is 10^-5 M for most compounds. The reported endpoint is percent growth (GI% or GIPRCNT), where numbers from 0 - 100% represent growth inhibition, and numbers from -100% - 0 represent cell death. For example, a value of 40 represents 60% growth inhibition. […]
This is part of a sample that, as a whole, favours compounds with a hit. Of some 83,000 tested, about 20% had one in any assay. Calls of active or inactive are those of the source. The calls were made as follows: active = growth percent below 10; inactive = the rest.
The reply should be one of these categories: active, inactive

Cn1ccnc1C(=O)/C=C/c1ccc(C(=O)Nc2ccc(NC(=O)CCNC(=O)c3csc(Br)n3)cc2)cc1: inactive
CS(=O)c1nccc(-c2c(-c3ccc(F)c(OCCc4ccccc4)c3)nc3sccn23)n1 (centres undefined): inactive
CC1=C2C(=C[C@@](C)(COS(N)(=O)=O)[C@@H]2O)C(=O)[C@](C)(O)C12CC2: inactive
CCN1C/C(=N\S(=O)(=O)c2ccccc2)N(CC)C1=S: inactive
NNC(=O)c1sc2nc(-c3cnccn3)cc(-c3cccs3)c2c1N: inactive

[ask] Record lookup: outcome of this test for COc1ccc(S(=O)(=O)NCCCNc2nccc(-n3cnc4ccccc43)n2)cc1 ?
[reply] inactive

[ask] Same question, C#C[C@]1(O)CC[C@H]2[C@@H]3CC=C4c5sc(Nc6cccc(C)n6)nc5CC[C@]4(C)[C@H]3CC[C@@]21C this time
[reply] active

[ask] Same question, O=C1c2c(c3c4cccnc4[nH]c3c3ccc4ccccc4c23)C(=O)N1CCN1CCOCC1 this time
[reply] inactive

[ask] Same question, O=C(c1cccc(F)c1)n1ccc2cc(NC(=S)Nc3cccnc3)ccc21 this time
[reply] inactive

[ask] Same question, COc1cc(CNC(=O)Cc2ccccc2[N+](=O)[O-])ccc1OCC(=O)NO this time
[reply] inactive

* * *

# System: DU-145 prostate
# ASSAY METHOD TEXT: NCI-60 one-dose screen, 48 h
# ASSAY SETUP: 10 µM unless noted
Compounds without any hit were thinned out: in the full panel of roughly 83,000, 20% have a hit. Active and inactive are the calls of the source. Rule for the calls: active = growth percent below 10; inactive = the rest.
The reply should be one of these categories: TRUE = active, FALSE = inactive

Study these solved cases before continuing.
C=CCn1c(SCC(=O)Nc2cccc(C(=O)/C=C/c3cc(OC)c(OC)c(OC)c3)c2)nc2ccccc2c1=O: FALSE
CCNC(=NCCCN(C)C)N/C(N)=N/c1nc2ccccc2s1: FALSE
C#CCOc1ccc(C(Nc2cc(Cl)ccc2Cl)c2nnnn2C2CCCCC2)cc1 (stereo unspecified): FALSE

[ask] Record lookup: outcome of this test for O=C(NNc1nc2cc(F)c(F)cc2n2cccc12)c1ncccn1 ?
[reply] FALSE

[ask] Same question, O=C(Nc1cccc(Cl)c1)Nc1nc2ccc([N+](=O)[O-])cc2s1 this time
[reply] FALSE

[ask] Same question, Nc1cc(F)ccc1NC(=O)c1ccc(NC(=O)C/C=C/c2cccnc2)cn1 this time
[reply] TRUE

* * *

# System: OVCAR-5 ovarian
# ASSAY METHOD TEXT: NCI-60 one-dose screen, 48 h (100 = growth as untreated, 0 = no growth, -100 = all killed)
# ASSAY SETUP: 10 µM unless noted
About 83,000 compounds went through this panel and 20% of them were active in at least one assay; those are over-represented in the sample as a whole.
PARAMETER MEASURED: growth (%)
Number in %, nothing else.

O=C(COc1ccc(C2SCC(=O)N2c2ccc(F)cc2)cc1)c1ccccc1 (stereo not drawn): 107
C#C[C@]1(O)CC[C@H]2[C@@H]3CC=C4c5sc(-c6ccccn6)nc5CC[C@]4(C)[C@H]3CC[C@@]21C: 94.2
Nc1ccc(-c2nnc(SCc3ccc(O)c4ncccc34)o2)cc1: 25
CCCCCCNC(=O)Oc1ccc(/C(=C(/C)c2ccc(OC)cc2)c2ccc(OCCN3CCCC3)cc2)cc1: 81.5
COc1ccc(-c2nnc(/N=C3/C(=O)Nc4ccc(Br)cc43)o2)cc1: 107

[ask] Field request: growth | item: O=C(CN1C(=O)CSC1=O)Nc1ccc(C(=O)/C=C/c2cc3ccccc3nc2Cl)cc1
[reply] 101

[ask] Same question, Cc1ccc(-c2cc3nc(C(Cl)Cl)nc(-c4ccccc4)n3n2)cc1 this time
[reply] 103

[ask] Same question, C(=C(\C1=NCCN1)n1cnc2ccccc21)/c1cccc2ccccc12 this time
[reply] 81.4

[ask] Same question, CCN(CC)CCN1C(=O)c2c(c3c4cccnc4[nH]c3c3ccc4ccccc4c23)C1=O this time
[reply] 111

[ask] Same question, O=C(NNc1nc2cc(F)cc(F)c2n2cccc12)c1ncccn1 this time
[reply] 40.5

[ask] Same question, CNC(=O)c1cc(Oc2ccc3nc(NC(=O)c4cc(C)cc(C)c4)sc3c2)ccn1 this time
[reply] 104

[ask] Same question, O=[N+]([O-])c1ccc(-c2nnc(SCc3ccc(O)c4ncccc34)o2)cc1 this time
[reply] 49

[ask] Same question, CCOC(=O)/C(F)=C/C1CC1CCc1cccc(C(F)(F)F)c1 (stereo not drawn) this time
[reply] 100

[ask] Same question, Cc1ccc(NC(=O)N[C@@H](Cc2cc(F)cc(F)c2)C(=O)NC2C(=O)N3CCC[C@H]3C(=O)N3CCCC[C@H]3C(=O)N[C@@H](C)C(=O)N3C[C@H](C)C[C@H]3C(=O)O[C@H]2C)c(F)c1 (stereo partly drawn) this time
[reply] 36.3

[ask] Same question, C=CCn1c(SCC(=O)Nc2cccc(C(=O)/C=C/c3ccc(Br)cc3)c2)nc2ccccc2c1=O this time
[reply] 96.2

[ask] Same question, O=C(CCCCCCN1CC(=O)N2[C@@H](c3ccccc3)c3[nH]c4ccccc4c3C[C@H]2C1=O)NO this time
[reply] 58

[ask] Same question, CCCCCCNC(=O)Oc1ccc(/C(=C(\C)c2ccc(Cl)cc2)c2ccc(OCCN(C)C)cc2)cc1 this time
[reply] 78.1

[ask] Same question, C#C[C@]1(O)CC[C@H]2[C@@H]3CC=C4c5sc(C6CCOCC6)nc5CC[C@]4(C)[C@H]3CC[C@@]21C this time
[reply] 88.6

* * *

# Tested on: A549/ATCC NSCLC
# ASSAY METHOD TEXT: NCI-60 one-dose screen, 48 h
# ASSAY SETUP: 10 µM unless noted
About 83,000 compounds went through this panel and 20% of them were active in at least one assay; those are over-represented in the sample as a whole. The source made the active and inactive calls. Rule for the calls: active = growth percent below 10; inactive = the rest.
The reply should be one of these categories: 1 (active), 0 (inactive)

COc1ccc(-c2nn(-c3ccccc3)cc2/C=C/C(=O)c2ccc(NC(=O)CCCCCCC(=O)NO)cc2)cc1: 0
O=C(CCCCCCN1CC(=O)N2[C@@H](c3ccccc3)c3[nH]c4ccccc4c3C[C@H]2C1=O)NO: 0
O=C1c2c(c3c4ccc(Br)cc4oc3c3[nH]c4ccccc4c23)C(=O)N1CCO: 0

[ask] Record lookup: outcome of this test for COc1ccc(-c2ccnc3c(C#N)c(Nc4ccccc4)nn23)cc1OC ?
[reply] 0

[ask] Same question, C=CCn1c(SCC(=O)Nc2cccc(C(=O)/C=C/c3cc(OC)c(OC)c(OC)c3)c2)nc2ccccc2c1=O this time
[reply] 0

[ask] Same question, O=C1Nc2cc(OC(F)(F)F)ccc2Oc2ccc(-c3ccnc(N4CCNCC4)c3)cc21 this time
[reply] 1

[ask] Same question, COc1cc(/C=C2\SC(=O)NC2=O)ccc1OCC(=O)Nc1ccc(C(=O)/C=C/c2cc3ccccc3nc2Cl)cc1 this time
[reply] 0

[ask] Same question, C#CCOc1ccc(C(Nc2ccc(OC)cc2)c2nnnn2C2CCCCC2)cc1 (stereo not drawn) this time
[reply] 0

[ask] Same question, CCOC(=O)c1nn(-c2ccc(C)cc2)c(=O)c2c(N)c(C#N)c(-c3ccc(OC)cc3)cc12 this time
[reply] 0

[ask] Same question, O=C(NCCCNc1cc(-c2cn(-c3ccccc3)nc2-c2cccc(O)c2)ccn1)Nc1cccc(C(F)(F)F)c1 this time
[reply] 0

[ask] Same question, COc1ccc(NC(=O)[C@H](C)N)cc1C(=O)Nc1cccc(-c2cc(=O)c3c(OC)c(OC)c(OC)cc3o2)c1 this time
[reply] 0

[ask] Same question, CNC(=O)c1cc(Oc2ccc3nc(NC(=O)c4cccc(C(F)(F)F)c4)sc3c2)ccn1 this time
[reply] 0

[ask] Same question, O=C1/C(=C/c2ccccc2[N+](=O)[O-])Oc2ccc(O)cc21 this time
[reply] 0
